TARGET_OR_TEST_SYSTEM: HLA-A*23:01
TEST_PROTOCOL: IEDB peptide-MHC binding, purified MHC/direct/fluorescence; filed as Kd, often an IC50 or EC50 that approximates it; bounds were set here for any values at or beyond the usual limits of such assays
ASSAY_CONTEXT: source organism: Lechiguanas virus
pKd: −log10 of the molar value.
MEASUREMENT_LABEL: pKd

// lookup pKd for ETESATLFT
≤ 4.70

* * *

TARGET_OR_TEST_SYSTEM: HLA-A*02:11
TEST_PROTOCOL: IEDB peptide-MHC binding, purified MHC/competitive/fluorescence; filed as Kd, often an IC50 or EC50 that approximates it; bounds were set here for any values at or beyond the usual limits of such assays
ASSAY_CONTEXT: source organism: Entamoeba histolytica HM-1:IMSS
pKd: −log10 of the molar value.
MEASUREMENT_LABEL: pKd

INSERT INTO results (residue_codes, measurement_label, endpoint_value) VALUES
  ('EVRKAIEFV', 'pKd', '≤ 4.70');

For the next question, use this sequence.
// lookup pKd for WAKLLKQKW
≤ 4.70

* * *

TARGET_OR_TEST_SYSTEM: HLA-B*40:01
TEST_PROTOCOL: IEDB peptide-MHC binding, purified MHC/competitive/fluorescence; filed as Kd, often an IC50 or EC50 that approximates it; bounds were set here for any values at or beyond the usual limits of such assays
ASSAY_CONTEXT: source organism: Bacillus cereus 03BB102
MEASUREMENT_LABEL: pKd
Here pKd is given on a logarithmic scale as minus log10 of the concentration in mol/L.

Lab note: need pKd with HLA-B*40:01 for entry IELITTIGF , please look it up.
7.27

* * *

TARGET_OR_TEST_SYSTEM: HLA-A*31:01
TEST_PROTOCOL: IEDB peptide-MHC binding, purified MHC/direct/fluorescence; filed as Kd, often an IC50 or EC50 that approximates it; bounds were set here for any values at or beyond the usual limits of such assays
ASSAY_CONTEXT: source organism: Escherichia coli O157:H7
pKd: −log10 of the molar value.
MEASUREMENT_LABEL: pKd

// lookup pKd for GEIFGLLGP
≤ 4.70

* * *

TARGET_OR_TEST_SYSTEM: HLA-A*03:01
TEST_PROTOCOL: IEDB peptide-MHC binding, purified MHC/competitive/radioactivity; filed as Kd, often an IC50 or EC50 that approximates it; bounds were set here for any values at or beyond the usual limits of such assays
ASSAY_CONTEXT: source organism: Mammarenavirus machupoense
MEASUREMENT_LABEL: Kd

// lookup Kd for HYIHCFRKPH
≥ 70 µM

* * *

TARGET_OR_TEST_SYSTEM: HLA-A*68:02
TEST_PROTOCOL: IEDB peptide-MHC binding, purified MHC/competitive/fluorescence; bounds were set here for any values at or beyond the usual limits of such assays
ASSAY_CONTEXT: source organism: Homo sapiens
pIC50: −log10 of the molar value.
MEASUREMENT_LABEL: pIC50

// lookup pIC50 for LPSCPTNFCIF
≤ 4.70

* * *

TARGET_OR_TEST_SYSTEM: HLA-B*07:02
TEST_PROTOCOL: IEDB peptide-MHC binding, purified MHC/competitive/radioactivity; filed as Kd, often an IC50 or EC50 that approximates it; bounds were set here for any values at or beyond the usual limits of such assays
ASSAY_CONTEXT: source organism: Vaccinia virus WR
Here, each record is paired with measured Kd data.
Numeric only. Scale: nM

Examples from the recorded data:
INSERT INTO results (residue_codes, quantity_unit, endpoint_value) VALUES
  ('MPEKRNVVVV', 'nM', 194),
  ('KPESRPFDLI', 'nM', 1380),
  ('LPMIIGEPI', 'nM', 0.255),
  ('IPDELIDVL', 'nM', 373);

For the next question, use this sequence.
Lab note: need Kd with HLA-B*07:02 for entry FPANINDKQI , please look it up.
468

* * *

TARGET_OR_TEST_SYSTEM: HLA-A*11:01
TEST_PROTOCOL: IEDB peptide-MHC binding, purified MHC/competitive/radioactivity; filed as Kd, often an IC50 or EC50 that approximates it; bounds were set here for any values at or beyond the usual limits of such assays
ASSAY_CONTEXT: source organism: Vaccinia virus Copenhagen
MEASUREMENT_LABEL: Kd (nM)
Numeric only. Scale: nM

Lab note: need Kd with HLA-A*11:01 for entry GLACYRFVK , please look it up.
24

* * *

TARGET_OR_TEST_SYSTEM: HLA-A*02:02
TEST_PROTOCOL: IEDB peptide-MHC binding, purified MHC/competitive/radioactivity; filed as Kd, often an IC50 or EC50 that approximates it; bounds were set here for any values at or beyond the usual limits of such assays
ASSAY_CONTEXT: source organism: Vaccinia virus WR
MEASUREMENT_LABEL: Kd (nM)
Numeric only. Scale: nM

Examples from the recorded data:
INSERT INTO measurements (residue_codes, measurement_label, endpoint_value) VALUES
  ('FLQISRVNDL', 'Kd', 5.18),
  ('CVRLNNPVIL', 'Kd', 8560),
  ('ITRLEVIGLT', 'Kd', 2210);

// lookup Kd for YQNEVTPEYI
2.74

And the next one, YLGIFKNNDV ?
14.8

And the next one, ETFPNVHEHI ?
8020

And the next one, GLKIEEIEKV ?
14.9

And the next one, FVVNGHTCM ?
6640

And the next one, LLDEPLSPDT ?
8510

* * *

TARGET_OR_TEST_SYSTEM: HLA-A*02:03
TEST_PROTOCOL: IEDB peptide-MHC binding, purified MHC/competitive/radioactivity; filed as Kd, often an IC50 or EC50 that approximates it; bounds were set here for any values at or beyond the usual limits of such assays
ASSAY_CONTEXT: source organism: Homo sapiens
Here, each record is paired with measured pKd data.
Here pKd is given on a logarithmic scale as minus log10 of the concentration in mol/L.

INSERT INTO results (residue_codes, endpoint_value) VALUES
  ('RLFTKVKPLL', 7.02);

For the next question, use this sequence.
// lookup pKd for GLKSKTHAV
8.80

* * *

TARGET_OR_TEST_SYSTEM: HLA-A*02:01
TEST_PROTOCOL: IEDB peptide-MHC binding, purified MHC/competitive/fluorescence; filed as Kd, often an IC50 or EC50 that approximates it; bounds were set here for any values at or beyond the usual limits of such assays
ASSAY_CONTEXT: source organism: Brucella abortus S19
MEASUREMENT_LABEL: pKd
Here pKd is given on a logarithmic scale as minus log10 of the concentration in mol/L.

// lookup pKd for YWMGGTTYF
5.95

* * *

TARGET_OR_TEST_SYSTEM: HLA-B*27:03
TEST_PROTOCOL: IEDB peptide-MHC binding, purified MHC/competitive/fluorescence; filed as Kd, often an IC50 or EC50 that approximates it; bounds were set here for any values at or beyond the usual limits of such assays
ASSAY_CONTEXT: source organism: Zaire ebolavirus
Here, each record is paired with measured Kd data.

Examples from the recorded data:
INSERT INTO results (residue_codes, target_or_test_system, measurement_label, endpoint_value) VALUES
  ('KEGKLQCRI', 'HLA-B*27:03', 'Kd', '≥ 20 µM'),
  ('HPLARTAKV', 'HLA-B*27:03', 'Kd', '≥ 20 µM');

For the next question, use this sequence.
// lookup Kd for RDRFKRTSF
≥ 20 µM

* * *

TARGET_OR_TEST_SYSTEM: HLA-B*18:01
TEST_PROTOCOL: IEDB peptide-MHC binding, purified MHC/competitive/fluorescence; filed as Kd, often an IC50 or EC50 that approximates it; bounds were set here for any values at or beyond the usual limits of such assays
ASSAY_CONTEXT: source organism: Zaire ebolavirus
MEASUREMENT_LABEL: Kd

Examples from the recorded data:
INSERT INTO measurements (residue_codes, endpoint_value) VALUES
  ('KEGKLQCRI', '≥ 20 µM'),
  ('RDRFKRTSF', '≥ 20 µM');

For the next question, use this sequence.
// lookup Kd for HPLARTAKV
≥ 20 µM

* * *

TARGET_OR_TEST_SYSTEM: HLA-A*24:02
TEST_PROTOCOL: IEDB peptide-MHC binding, purified MHC/competitive/radioactivity; filed as Kd, often an IC50 or EC50 that approximates it; bounds were set here for any values at or beyond the usual limits of such assays
ASSAY_CONTEXT: source organism: Mammarenavirus guanaritoense
Here, each record is paired with measured pKd data.
Here pKd is given on a logarithmic scale as minus log10 of the concentration in mol/L.

INSERT INTO measurements (residue_codes, measurement_label, endpoint_value) VALUES
  ('RYNLDPDTI', 'pKd', 5.53);

For the next question, use this sequence.
// lookup pKd for MSPALFHAFF
6.91
